- Test system: MDA-MB-231
- test: NCI tumour cell line growth inhibition, 48 h
Activity calls are given as the source filed them. Rule as the data show it: active = GI50 up to about 1.1 µM and inactive = higher.
Choose one outcome from this list and give only that: true = active, false = inactive

Example entries and their recorded answers appear below.
O=C1C(Cl)=C(Cl)C(=O)N1c1ccc(F)cc1 [FLUOROIMIDE]    false
C1=C(c2ccccc2)SC=C(c2ccccc2)S1    false
COc1ccc2c(n1)Sc1nc3ccccc3nc1N2    false

State the result this test recorded for O=C1c2cc(Br)ccc2-c2ccc3c4ccc5c6c(ccc(c7ccc1c2c73)c64)C(=O)c1cc(Br)ccc1-5 .
false

Record request — test call for Cc1sc(/N=C/c2c[nH]c3ccccc23)c(C#N)c1C
false

Identify the outcome logged in this assay for the compound shown: COc1ccc(Nc2nc(NNC(=O)Cc3ccccc3)nc(NNC(=O)c3ccncc3)n2)cc1
false

GET /call?item= COc1cc2c(/C=C3/C(=O)Nc4cccc(Cl)c43)c(Cl)[nH]c2cc1C returns the recorded outcome of this test.
true

What classification did O=[N+]([O-])/C(C(Cl)=C(Cl)Cl)=C(\Nc1cccc2ccccc12)n1nnc2ccccc21 end up with in this test?
false

Hi, do you know how Cc1ccc2c3c1O[C@H]1c4[nH]c5ccccc5c4C[C@@]4(O)[C@@H](C2)N(C)CC[C@]314 came out in this test?
false

What is the recorded call for this compound in the test? N#Cc1nc(/C=C/c2cccnc2)oc1N
false

Recorded values, source ChEMBL document CHEMBL1201862.
